procedure.summary: yeast display, Sf9 membrane polyspecificity reagent, FACS + sequencing; frameworks hold sequencing errors
measured.endpoint: polyreactivity (PSR sort gate)

| construct.sequence | observed.value |
| --- | --- |
| QVQLVESGGGLVQAGGSLRLSCAASGRIFDTNVMGWYRQAPGKERELVAALSYSGGSTYYADSVKGRFTISRDNAKNTVYLQMNSLKPEDTAVYYCAAQYWQGDYDYRGQGTQVTVSS | high polyreactivity |
| QVQLVESGGGLVQAGGSLRLSCAASGFIYSSYAMGWYRQAPGKERELVAAITRNGGSTYYADSVKGRFTISRDNAKNTVYLQMNSLKPEDTAVYYCAAPRWRGVGRFDYWGQGSQVTVSS | high polyreactivity |
| QVQLVESGGCLVQAGGSLRLICASSGFTFRAYAMGWYIKAPGKEREFVAAISRRGGSTSYADSVKGRFTISRDNAKNTVYLQMNSLKPEDTAVYYCAATYQILTTSAHDSWGQGTQVTVSS | high polyreactivity |
